Target: Gcr1 (UniProt P07261)
Sequence: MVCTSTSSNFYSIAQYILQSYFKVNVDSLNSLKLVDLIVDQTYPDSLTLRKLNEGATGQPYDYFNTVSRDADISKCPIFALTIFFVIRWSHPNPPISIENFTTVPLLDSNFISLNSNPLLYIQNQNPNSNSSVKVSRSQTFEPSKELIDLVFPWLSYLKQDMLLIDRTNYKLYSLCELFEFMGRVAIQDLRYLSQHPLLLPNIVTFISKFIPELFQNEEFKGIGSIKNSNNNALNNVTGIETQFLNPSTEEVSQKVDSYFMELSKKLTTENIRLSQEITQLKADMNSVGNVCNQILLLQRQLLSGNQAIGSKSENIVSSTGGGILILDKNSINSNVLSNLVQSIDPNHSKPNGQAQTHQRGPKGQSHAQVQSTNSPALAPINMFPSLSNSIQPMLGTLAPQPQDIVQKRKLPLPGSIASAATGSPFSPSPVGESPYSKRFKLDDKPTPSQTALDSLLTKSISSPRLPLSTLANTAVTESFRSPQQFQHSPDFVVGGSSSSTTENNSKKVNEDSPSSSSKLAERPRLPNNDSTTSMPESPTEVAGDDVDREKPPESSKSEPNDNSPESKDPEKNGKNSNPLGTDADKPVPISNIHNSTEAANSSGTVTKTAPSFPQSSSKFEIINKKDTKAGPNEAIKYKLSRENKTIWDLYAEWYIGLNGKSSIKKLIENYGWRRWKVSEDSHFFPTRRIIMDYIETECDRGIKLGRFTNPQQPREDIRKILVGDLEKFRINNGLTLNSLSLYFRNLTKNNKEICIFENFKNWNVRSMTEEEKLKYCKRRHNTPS
Test: PBM E-score (8-mer binding enrichment) (E-score (-0.5 to 0.5)); higher = stronger / more preferred TF binding
Settings: protein concentration: 100 nM; construct: GST-full length
In all, about 33,000 sequences were measured (“E-score (-0.5 to 0.5)”: median about -0.011, highest 2% from about 0.28 on). The list comes from a sample in which the highest values are over-represented; it also holds close analogues and randomly drawn sequences.
PBM E-score by entry:

Worked examples, 8 sequences total:
   macromolecule_sequence  target_or_test_system  measurement_type  value_reported
0                AAGAAGCC  Gcr1 (UniProt P07261)       PBM E-score           0.401
1                GAGAAGCC  Gcr1 (UniProt P07261)       PBM E-score           0.395
2                GGAAGCGA  Gcr1 (UniProt P07261)       PBM E-score           0.175
3                ATAAGCTA  Gcr1 (UniProt P07261)       PBM E-score          -0.078
4                GGAAGTTA  Gcr1 (UniProt P07261)       PBM E-score           0.339
5                CGAAGTTA  Gcr1 (UniProt P07261)       PBM E-score          0.0921
6                GGAAGCTA  Gcr1 (UniProt P07261)       PBM E-score           0.457
7                AGAAGCTA  Gcr1 (UniProt P07261)       PBM E-score           0.338

// sequence AAAAAGCT , assay Gcr1 (UniProt P07261), PBM E-score value: -0.183

// sequence CGAACACC , assay Gcr1 (UniProt P07261), PBM E-score value: -0.135

// sequence CTATTGGC , assay Gcr1 (UniProt P07261), PBM E-score value: 0.0102

// sequence GGGCGAGA , assay Gcr1 (UniProt P07261), PBM E-score value: -0.0433

// sequence GGCACTCA , assay Gcr1 (UniProt P07261), PBM E-score value: -0.189

// sequence GCGAAGCC , assay Gcr1 (UniProt P07261), PBM E-score value: 0.1
